Target: human AR (Homo sapiens (Human), UniProt P10275)
Sequence (P10275 whole entry): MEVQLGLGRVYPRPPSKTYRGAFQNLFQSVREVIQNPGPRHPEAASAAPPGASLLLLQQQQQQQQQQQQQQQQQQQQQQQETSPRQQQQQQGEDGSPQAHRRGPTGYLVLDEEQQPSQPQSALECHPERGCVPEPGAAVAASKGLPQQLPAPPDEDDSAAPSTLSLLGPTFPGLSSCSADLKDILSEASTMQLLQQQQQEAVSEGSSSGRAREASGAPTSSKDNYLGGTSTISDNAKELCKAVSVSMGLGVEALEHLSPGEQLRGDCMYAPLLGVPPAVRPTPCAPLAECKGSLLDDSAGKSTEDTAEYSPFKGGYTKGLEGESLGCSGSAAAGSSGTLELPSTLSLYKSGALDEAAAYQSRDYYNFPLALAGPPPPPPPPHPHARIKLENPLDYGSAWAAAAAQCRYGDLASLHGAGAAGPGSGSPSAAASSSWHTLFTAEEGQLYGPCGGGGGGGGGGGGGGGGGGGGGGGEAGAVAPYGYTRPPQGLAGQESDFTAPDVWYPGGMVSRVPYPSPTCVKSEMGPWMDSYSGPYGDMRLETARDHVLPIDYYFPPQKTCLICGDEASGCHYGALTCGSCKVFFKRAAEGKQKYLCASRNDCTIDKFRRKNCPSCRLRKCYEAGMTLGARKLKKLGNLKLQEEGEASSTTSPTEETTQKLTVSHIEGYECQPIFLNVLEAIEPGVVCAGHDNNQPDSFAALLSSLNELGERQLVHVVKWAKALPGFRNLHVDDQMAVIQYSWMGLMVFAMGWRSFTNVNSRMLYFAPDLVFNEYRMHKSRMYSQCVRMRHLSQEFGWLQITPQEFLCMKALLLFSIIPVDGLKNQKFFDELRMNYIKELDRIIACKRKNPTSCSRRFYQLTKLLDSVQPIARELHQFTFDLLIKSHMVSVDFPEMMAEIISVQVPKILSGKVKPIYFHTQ
Assay: Agonism in AR overexpressing hAR/HEK293 cells, reporter gene assay
Format: cell-based
Conditions: % of testosterone-induced AR activity at 10 μM concentration
Protocol: AR agonism of the test compound in AR overexpressing hAR/HEK293 cells was measured as % of testosterone-induced AR activity at 10 μM concentration, Agonism of test compounds in AR overexpressing cells was measured by reporter gene assay in HEK293 cells stably transfected with an expression vector encoding full-length human AR and androgen responsive luciferase reporter gene construct. […] The test compounds were studied in triplicates and luciferase activity was determined as described above.
Please respond with Condition met when measured Agonism in AR overexpressing cells (%) is strictly beneath 30%, and with Condition not met in all other cases.

// below: answered compounds
CC(O)c1cc(C(=O)N[C@@H](C)Cn2ccc(-c3ccc(C#N)c(Cl)c3)n2)no1 (some centres unmarked) [Example 124] : Condition met
CC(O)c1cc(C(=O)N[C@@H](C)Cn2ccc(-c3ccc(C#N)c(Cl)c3)n2)[nH]n1 (some centres unmarked) [Example 56] : Condition met
Cc1cc(-c2ccn(C[C@H](C)NC(=O)c3cc(-c4ccco4)n[nH]3)n2)ccc1C#N [Example 32] : Condition not met

-- ask Report whether reported Agonism in AR overexpressing cells (%) is lower than 30% (strictly) for C[C@H](CNC(=O)c1csc(CC#N)n1)n1ccc(-c2cc(F)c(C#N)c(F)c2)n1 [Example 222]
-- reply Condition met

-- ask Would you kindly verify if Agonism in AR overexpressing cells (%) of CC(=O)c1cc(C(=O)N[C@@H](C)Cn2ccc(-c3ccc(C#N)c(Cl)c3)n2)[nH]n1 [Example 34] is strictly less than 30%?
-- reply Condition not met

-- ask Record N#Cc1ccc(-c2ccn(CCNC(=O)c3cc(-c4cccnc4)n[nH]3)n2)cc1C#N [Example 52] : is its Agonism in AR overexpressing cells (%) strictly below 30%?
-- reply Condition not met

-- ask For this compound, is Agonism in AR overexpressing cells (%) lower than 30%? CCc1noc(C(=O)N[C@@H](C)Cn2ccc(-c3ccc(C#N)c(Cl)c3)n2)n1 [Example 91]
-- reply Condition met

-- ask Decide: Agonism in AR overexpressing cells (%) of Cc1nc(C(=O)N[C@@H](C)Cn2ccc(-c3cc(F)c(C#N)c(Cl)c3)n2)c[nH]1 [Example 249] strictly below 30%?
-- reply Condition not met

----------
Molecular target: UniProt:P10275
Experiment: Agonism in AR overexpressing hAR/HEK293 cells, reporter gene assay
Format: cell-based
Conditions: % of testosterone-induced AR activity at 10 μM concentration
PROPERTY LABEL: Agonism in AR overexpressing cells (%)
Give bare numbers, in %.

CC(=O)c1cc(C(=O)NC[C@H](C)n2ccc(-c3cc(F)c(C#N)c(F)c3)n2)[nH]n1 : 0
Cc1noc(C(=O)N[C@@H](C)Cn2ccc(-c3ccc(C#N)c(Cl)c3)n2)n1 : 19

Please turn your attention to the following entry.
-- ask Lookup: Agonism in AR overexpressing cells (%) / UniProt:P10275 / Cc1nc(-c2cc(C(=O)N[C@@H](C)Cn3ccc(-c4ccc(C#N)c(Cl)c4)n3)n[nH]2)cs1
-- reply 18

----------
Target: human AR (Homo sapiens (Human), UniProt P10275)
Assay: Agonism in AR overexpressing hAR/HEK293 cells, reporter gene assay
Type: cell-based
Details: % of testosterone-induced AR activity at 10 μM concentration
PROPERTY LABEL: Agonism in AR overexpressing cells (%)

In the examples that follow, each entry is paired with its recorded Agonism in AR overexpressing cells (%).
C[C@@H](Cn1ccc(-c2ccc(C#N)c(Cl)c2)n1)NC(=O)c1[nH]nc2c1COCC2 [Example 338] : 25%
C[C@@H](Cn1ccc(-c2cc(F)c(C#N)c(Cl)c2)n1)NC(=O)c1cn2cccnc2n1 [Example 324] : 16%
C[C@H](Cn1ccc(-c2ccc(C#N)c(Cl)c2)n1)NC(=O)c1csc(N2CCOCC2)n1 [Example 132] : 21%
C[C@@H](Cn1ccc(-c2ccc(C#N)c(Cl)c2)n1)NC(=O)c1csc(-c2cn[nH]c2)n1 [Example 206] : >20%

-- ask Suppose we examine the compound O=C(NCCc1ccc(-c2ccc(Cl)c(Cl)c2)o1)c1cc(C(=O)N2CCOCC2)n[nH]1 [Example 8] ; what Agonism in AR overexpressing cells (%) value has been reported?
-- reply 0%
